- test_description: Bioavailability in male dog at 10 mg/kg, po or 3 mg/kg, iv by HPLC-MS/MS analysis
- Type: ADME, organism-based, Canis lupus familiaris
- assay_setup: in vivo
measurement_name: bioavailability

[[record]]
query_smiles = "Cc1onc(-c2ccc(F)cc2)c1COc1ccc2c(n1)CCN(C(=O)CS(C)(=O)=O)C2"
result_value = "12.6%"


====

- test_description: Ratio of drug level in brain to plasma in Wistar rat at 1 mg/kg, po or 1 mg/kg, iv by HPLC-MS/MS analysis
- Assay type: ADME, organism-based
- assay_setup: brain and plasma, read-out: BPR
measurement_name: Kp

[[record]]
query_smiles = "Cc1onc(-c2ccc(F)cc2)c1COc1ccc2c(n1)CCN(C(=O)CS(C)(=O)=O)C2"
measurement_name = "Kp"
result_value = 0.54

